# TESTED_ON: OGA (Homo sapiens, UniProt O60502)
# Construct: HEK293 cells inducible for P301L mutant human Tau (isoform 2N4R) were established at Janssen; endogenous in cells; host or cells: HEK293 cells inducible for P301L mutant human Tau (2N4R)
# Sequence (O60502 1-916): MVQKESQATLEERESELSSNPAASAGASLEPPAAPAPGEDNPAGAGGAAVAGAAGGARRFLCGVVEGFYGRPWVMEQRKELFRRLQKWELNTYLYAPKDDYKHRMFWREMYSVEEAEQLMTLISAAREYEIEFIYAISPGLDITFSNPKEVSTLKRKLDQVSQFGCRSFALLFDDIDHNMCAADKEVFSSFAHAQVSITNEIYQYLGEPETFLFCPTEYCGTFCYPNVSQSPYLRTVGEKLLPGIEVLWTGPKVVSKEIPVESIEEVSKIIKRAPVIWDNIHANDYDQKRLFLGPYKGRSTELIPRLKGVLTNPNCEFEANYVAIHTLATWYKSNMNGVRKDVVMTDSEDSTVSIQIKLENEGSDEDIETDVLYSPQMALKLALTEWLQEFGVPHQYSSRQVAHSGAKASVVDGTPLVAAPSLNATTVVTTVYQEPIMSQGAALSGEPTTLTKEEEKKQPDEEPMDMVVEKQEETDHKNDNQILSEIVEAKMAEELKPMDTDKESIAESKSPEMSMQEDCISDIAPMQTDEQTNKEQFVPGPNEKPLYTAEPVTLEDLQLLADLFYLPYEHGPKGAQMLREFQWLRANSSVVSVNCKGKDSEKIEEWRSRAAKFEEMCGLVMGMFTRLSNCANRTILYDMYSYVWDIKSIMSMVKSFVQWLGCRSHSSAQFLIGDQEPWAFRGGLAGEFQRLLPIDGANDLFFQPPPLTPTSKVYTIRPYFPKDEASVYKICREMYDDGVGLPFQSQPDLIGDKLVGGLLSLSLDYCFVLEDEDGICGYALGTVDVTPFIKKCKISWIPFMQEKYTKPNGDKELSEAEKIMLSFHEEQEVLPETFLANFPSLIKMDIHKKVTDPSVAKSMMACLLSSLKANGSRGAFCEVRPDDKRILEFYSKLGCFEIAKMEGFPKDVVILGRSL
# TEST: OGA cellular assay (ICC detection of O-GlcNAcylated proteins in HEK293 cells inducible for P301L mutant human Tau)
# Format: cell-based
# CONDITIONS: HEK293 cells inducible for P301L mutant human Tau, 6 hours incubation; read-out: Cellular hOGA; pEC50 (converted)
METRIC_NAME: log10 of EC50 (log10 of the value in nM)
Parameter value (number): base-10 log of EC50 in nM.

Cc1cc(NC[C@H]2CCCN(C(C)c3ccc4sc(C)nc4n3)C2)nc(C)n1 (stereo partly drawn)    1.10
Cc1cc(C[C@@H]2CCN(C(C)c3ccc4sc(C)nc4n3)C2)cc(C)n1 (mixture of isomers)    2.80
COc1cc(N[C@H]2CCCN(C(C)c3ccc4sc(C)nc4n3)C2)cc(C)n1 (stereo partly drawn)    2.01
Cc1cc(C2CCCN(C(C)c3cc4nc(C)sc4cc3F)C2)cc(C)n1 (stereo not drawn) [Compound 90]    1.50

# return log10 of EC50 for each item in the list
1. Cc1cc(C[C@@H]2CCN([C@@H](C)c3cc4nc(C)sc4cc3F)C2)cc(C)n1
2. Cc1cc([C@H]2CCCN([C@@H](C)c3ccc4sc(C)nc4n3)C2)cc(C)n1 (racemic)

OUT:
[1.80, 1.50]
